- test-protocol: TLR3 IRF3 reporter activation blockers – cell-based, poly I:C stimulus, luciferase, 10K MLSCN set, primary screen (AID 602277)
- condition: HEK293-TLR3 RL24 IRF3 luciferase reporter, at 10 µM, active compounds read high
Listing of recorded inhibition by entry.
All answers are understood in %, so give the number only.

If you can, please state the reported inhibition value of Cc1cc(NC(=O)CSc2nnc(C3CC3)n2C)no1 .
16.1

Continuing:
Find the recorded inhibition belonging to Cc1nn(-c2ccccc2)c(C)c1C(=O)OCC(=O)c1c(N)n(CC(C)C)c(=O)n(C)c1=O and report it.
-99.7

Fill blank: measured inhibition of the molecule Cc1nnc(N(Cc2ccco2)C(=O)c2cccc(C#N)c2)s1 is ____.
5.23

Param item = CCOC(=O)CSc1nc(C)c(C(=O)OCC)s1 ; retrieve measured inhibition.
15.6

# inhibition lookup, item CCSc1nnc(NC(=O)CSc2ncccn2)s1
4

// inhibition lookup, key: COC(=O)c1ccc(N2C(=O)CC(N3CCN(C(=O)c4ccco4)CC3)C2=O)cc1 (stereo not drawn)
18.5

What value of inhibition has been reported for the following molecule? O=C(Nc1cc(Cl)ccc1Cl)c1noc2c1CCCC2
26.6

Record request: inhibition value, item CCCCC(=O)Nc1nn(CCC)c2nc3ccccc3cc12
-0.131

Could you share which inhibition value was measured for O=C(Cc1cccs1)Nc1ccccc1C(=O)O ?
-27.9

Which inhibition reading was recorded for the molecule Cc1ccc(C(=O)CSc2nnc(-c3cccnc3)n2N)cc1 ?
51.1

Reported inhibition, molecule CCOC(=O)CCC(=O)Nc1ccc(S(=O)(=O)N2CCCC2)cc1 : ____
100

State the recorded inhibition for this entry: CC(=O)c1ccc(NC(=O)c2noc3c2CCCCC3)cc1
-114

Dear colleague, I am looking for the recorded inhibition of the following molecule: COc1cccc(-c2cc(C(=O)Nc3cc(C)n(Cc4ccc(Cl)cc4)n3)no2)c1
-60.3

Which inhibition value belongs to CCOc1ccccc1NC(=O)CSc1c(C)n[nH]c1C ?
15.3

Given the molecule Cn1c(CN2CCOCC2)nc2cc(NC(=O)c3ccccc3Cl)ccc21 , what is its reported inhibition?
2.36

If you can, please state the reported inhibition value of Cc1cc(NS(=O)(=O)c2ccc(NC(=O)C(C)N3C(=O)c4ccccc4C3=O)cc2)nc(C)n1 (stereo not drawn) .
18.8

---

- test-protocol: endothelial E-selectin expression blockers – imaging, HUVEC, immunofluorescence, MLSMR starter and 10KST1 sets, primary screen (AID 487);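 further: signal is fraction of cell area covered by stained E-selectin grains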
- condition: HUVEC TNFalpha-induced E-selectin immunofluorescence imaging, at 2 µM; active compounds read high
Calls of active or inactive are those of the source.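 The calls were made as follows: active = visually confirmed hit in the image check and inhibition above 20%; inconclusive = visually confirmed hit but inhibition not above 20%; inactive = no visual hit in the image check.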
Here the recorded inhibition is given for each entry.

// returns reported inhibition for input COc1cccc(OC)c1C(=O)N1CCOCC1
-105% (inactive)

Sample Clc1ccc(Cn2c(CN3CCCC3)nc3ccccc32)cc1 — what was its inhibition?
-57.5% (inactive)

I am curious: what inhibition value has been reported for O=C1CC(c2ccco2)CC(O)=C1C=NCCN1CCNCC1 (configuration not stated) ?
-35% (inactive)

Continuing:
Reported inhibition for O=C1C2CCCN2C(c2ccc(Cl)cc2)N1c1nccs1 (configuration not stated) : what is it?
12.8% (inactive)

GET /values?readout=inhibition&item= O=C(O)c1ccccc1C(=O)Nc1ccccc1
-88.4% (inactive)

Need inhibition of CSc1nnc2n(CCc3ccccc3)c(=O)c3c4c(sc3n12)CCCC4 , thanks.
-22% (inactive)

# input molecule: CCOC(=O)N1CCN(c2cc3[nH]c(=S)[nH]c3cc2F)CC1 ; wanted: its inhibition
-135% (inactive)

Query: inhibition; subject: CC(C)=CCSc1nnc(CCNC(=O)OC(C)(C)C)o1
22.3% (inactive)

# lookup: inhibition of COc1ccc(N(CC(=O)N2c3ccccc3CC2C)S(=O)(=O)c2c(C)noc2C)cc1 (configuration not stated)
-62.5% (inactive)

Consider the molecule shown here: COc1ccc(C(C)(C)C)cc1NC(=O)Nc1ccc2c(c1)OCO2 What is its recorded inhibition?
-13.1% (inactive)
